Assay: in vitro
Details: human
For each entry below, report its CC50 value.

# input What CC50 value was documented for this molecule, CCOC(=O)CCCCCCNCCC(=O)NN(c1ccccc1)c1ccccc1 [Compound 27] ?
# output > 10 µM

# input What CC50 value was documented for this molecule, O=C(CNCCc1ccccc1)NN(c1ccccc1)c1ccccc1 [Compound 24] ?
# output > 10 µM

# input What CC50 value was documented for this molecule, O=C(CCNCCC1CCN(Cc2ccccc2)CC1)NN(Cc1ccccc1)c1ccccc1 [Compound 31] ?
# output > 10 µM

# input What CC50 value was documented for this molecule, COC(=O)C1CCN(CC(=O)NN(Cc2ccccc2)c2ccccc2)CC1 [Compound 36] ?
# output > 100 µM

# input What CC50 value was documented for this molecule, CCCCCC(=O)NN(Cc1ccccc1)c1ccccc1 [Compound 38, N′-Benzyl-N′-phenylhexanehydrazide] ?
# output > 100 µM

# input What CC50 value was documented for this molecule, O=C(CNCCc1ccccc1)N(c1ccccc1)c1ccccc1 [Compound 42, 2-(Phenethylamino)-N,N-diphenylacetamide] ?
# output > 100 µM

# input What CC50 value was documented for this molecule, CCCCCC(=O)N(c1ccccc1)c1ccccc1 [Compound 44, N,N-Diphenylhexanamide] ?
# output > 100 µM

# input What CC50 value was documented for this molecule, CCOC(=O)C1CCN(CC(=O)NN(c2ccccc2)c2ccccc2)CC1 [Compound 17] ?
# output > 10 µM

----------
Test system: EBOV-GP-Pseudotype Virus (pEBOV)
Assay: microbe, parasite or virus in culture
Conditions: Zaire ebolavirus, HeLa, 48 h, read-out: EC50 (μM) (pEBOV)
test readout: EC50 (µM)
The reply should be a number in µM, with the unit left off.

# input What EC50 value was documented for this molecule, O=C(CCNCCC1CCN(Cc2ccccc2)CC1)NN(c1ccccc1)c1ccccc1 ?
# output 0.05

# input What EC50 value was documented for this molecule, O=C(CCN1CCCC1)Nn1c2ccccc2c2ccccc21 ?
# output 1.29

# input What EC50 value was documented for this molecule, O=C(CCNCCN1CCN(Cc2ccccc2)CC1)NN(Cc1ccccc1)c1ccccc1 ?
# output 3.63

# input What EC50 value was documented for this molecule, O=C(CNCCN1CCN(Cc2ccccc2)CC1)NN(c1ccccc1)c1ccccc1 ?
# output 2.17

# input What EC50 value was documented for this molecule, O=C(CNCCC1CCN(Cc2ccccc2)CC1)NN(Cc1ccccc1)c1ccccc1 ?
# output 1.05

# input What EC50 value was documented for this molecule, O=C(CCN1CCCCC1)Nn1c2ccccc2c2ccccc21 ?
# output 2.8

# input What EC50 value was documented for this molecule, CN1CCN(CCC(=O)NN(c2ccccc2)c2ccccc2)CC1 ?
# output 0.27

# input What EC50 value was documented for this molecule, O=C(CNCCC1CCN(Cc2ccccc2)CC1)Nn1c2ccccc2c2ccccc21 ?
# output 0.37

----------
Assay: in vivo
Details: male, BALB/c, mouse, po, 50 mg/kg, AUClast (h × ng/mL)
test readout: AUC(0-t) at 24 h (ng·h/mL)
The reply should be a number in ng·h/mL, with the unit left off.

# input What AUC(0-t) at 24 h value was documented for this compound, O=C(CCNCCC1CCN(Cc2ccccc2)CC1)NN(c1ccccc1)c1ccccc1 ?
# output 2020

----------
Experiment: in vitro
Conditions: human, microsomes, pH 7.4
For each entry below, report its half-life at 1 h, 10 µM value.
The reply should be a number in min, with the unit left off.

# input What half-life at 1 h, 10 µM value was documented for this compound, O=C(CCNCCN1CCN(Cc2ccccc2)CC1)NN(c1ccccc1)c1ccccc1 ?
# output 53

# input What half-life at 1 h, 10 µM value was documented for this compound, O=C(CCNCCC1CCN(Cc2ccccc2)CC1)NN(c1ccccc1)c1ccccc1 ?
# output 45

----------
Test: in vivo
Conditions: male, BALB/c, mouse, po, 50 mg/kg, Brain-Kp (AUClast)
test readout: Kp at 24 h
// keep it numeric: no unit symbol after the value

# input What Kp at 24 h value was documented for this compound, O=C(CCNCCC1CCN(Cc2ccccc2)CC1)NN(c1ccccc1)c1ccccc1 ?
# output 1.66

# input What Kp at 24 h value was documented for this compound, O=C(CCNCCN1CCN(Cc2ccccc2)CC1)NN(c1ccccc1)c1ccccc1 ?
# output 46.5

----------
Assay: in vivo
Conditions: male, BALB/c, mouse, po, 50 mg/kg, Brain-Kp (Cmax)
test readout: Kp at 24 h
// keep it numeric: no unit symbol after the value

# input What Kp at 24 h value was documented for this molecule, O=C(CCNCCN1CCN(Cc2ccccc2)CC1)NN(c1ccccc1)c1ccccc1 ?
# output 3.65

# input What Kp at 24 h value was documented for this molecule, O=C(CCNCCC1CCN(Cc2ccccc2)CC1)NN(c1ccccc1)c1ccccc1 ?
# output 0.72

----------
Test system: EBOV-GP-Pseudotype Virus (pEBOV)
The threshold is 60. Values of SI (pEBOV) (CC50/EC50) beneath it are tagged yes (1); values meeting or exceeding it are tagged no (0).

# input Is SI (pEBOV) (CC50/EC50) of O=C(CNCCC1CCN(Cc2ccccc2)CC1)NN(c1ccccc1)c1ccccc1 [Compound 10] strictly below 60?
# output yes (1)

# input Is SI (pEBOV) (CC50/EC50) of O=C(CCN1CCCCC1)Nn1c2ccccc2c2ccccc21 [Compound 7] strictly below 60?
# output yes (1)

# input Is SI (pEBOV) (CC50/EC50) of O=C(CNCCC1CCN(Cc2ccccc2)CC1)NC1c2ccccc2-c2ccccc21 [Compound 9] strictly below 60?
# output no (0)

# input Is SI (pEBOV) (CC50/EC50) of CN1CCN(CCC(=O)NN(c2ccccc2)c2ccccc2)CC1 [Compound 14] strictly below 60?
# output no (0)

# input Is SI (pEBOV) (CC50/EC50) of O=C(CNCCC1CCN(Cc2ccccc2)CC1)NN(Cc1ccccc1)c1ccccc1 [Compound 30] strictly below 60?
# output no (0)

# input Is SI (pEBOV) (CC50/EC50) of CN1CCN(CCC(=O)Nn2c3ccccc3c3ccccc32)CC1 [Compound 3] strictly below 60?
# output no (0)
